Quick note: these are MIC numbers for system: E. faecalis (ATCC 29212)
The response must be a number in µg/mL with no trailing unit.

Problem: Consider the compound `Cn1cccc1C(=O)C=Cc1ccc(-c2cc(Cl)ccc2Cl)o1` and give its recorded MIC.
Result: 200

Problem: Dear colleague, please send me the reported MIC for `Cn1cccc1C(=O)C=Cc1ccc(-c2ccc(Cl)cc2)o1` when you can.
Result: 100

Problem: Hello, please tell me recorded MIC for this one: `Cn1cccc1C(=O)C=Cc1ccc(-c2ccccc2[N+](=O)[O-])o1`
Result: 100

Problem: Provide MIC value for the following compound: `Cn1cccc1C(=O)C=Cc1ccc(-c2cccc([N+](=O)[O-])c2)o1`
Result: 100

Problem: Quick one: give measured MIC for `Cn1cccc1C(=O)C=Cc1ccc(-c2ccc(Cl)cc2[N+](=O)[O-])o1`
Result: 200

Problem: Consider the compound `Cn1cccc1C(=O)C=Cc1ccc(-c2ccccc2Cl)o1` . State its measured MIC.
Result: 200

Problem: Answer with reported MIC of `Cn1cccc1C(=O)C=Cc1ccc(-c2ccc(Cl)cc2Cl)o1`
Result: 200

* * *

Test system: NIH/3T3 mouse embryonic fibroblast cell line
experimental_protocol: MTT assay
Assay type: cell-based
condition_parameters: Mus musculus, NIH3T3, healthy cells for selectivity
Protocol: The anticancer effects of compounds 1–10 on A549 human lung adenocarcinoma (ATCC® CCL-185™), HepG2 human hepatocellular carcinoma (ATCC® HB-8065™), and C6 rat glioma (ATCC® CCL107™) cell lines were assessed using 3-(4,5-Dimethylthiazol-2-yl)-2,5-diphenyltetrazolium bromide (MTT) assay, whereas the selectivity of compounds 1–10 was tested using NIH/3T3 mouse embryonic fibroblast cell line (ATCC® CRL-1658™, London, UK). All cell lines were incubated according to the supplier’s recommendations. […]
Entries whose IC50 is below 40 µg/mL take y; entries at or above 40 µg/mL take n.

Problem: Regarding `Cn1cccc1C(=O)C=Cc1ccc(-c2ccc(Cl)cc2Cl)o1` , kindly confirm whether its IC50 is beneath 40 µg/mL.
Result: n

Problem: Answer whether the compound `Cn1cccc1C(=O)C=Cc1ccc(-c2cccc([N+](=O)[O-])c2)o1` has IC50 strictly less than 40 µg/mL
Result: n

Problem: Check if IC50 falls below 40 µg/mL for `Cn1cccc1C(=O)C=Cc1ccc(-c2ccc([N+](=O)[O-])cc2)o1` .
Result: n

Problem: Strictly below 40 µg/mL: is that where IC50 of `Cn1cccc1C(=O)C=Cc1ccc(-c2ccc(Cl)c(Cl)c2)o1` sits?
Result: n

Problem: Please indicate whether the reported IC50 of `Cn1cccc1C(=O)C=Cc1ccc(-c2ccccc2[N+](=O)[O-])o1` is strictly below 40 µg/mL.
Result: n

Problem: Just wondering, is IC50 of `Cn1cccc1C(=O)C=Cc1ccc(-c2cccc(Cl)c2)o1` below 40 µg/mL?
Result: y

Problem: Hi there! Is IC50 for `Cn1cccc1C(=O)C=Cc1ccc(-c2ccccc2Cl)o1` below 40 µg/mL, do you know?
Result: n

Problem: # check: IC50 < 40 µg/mL for `Cn1cccc1C(=O)C=Cc1ccc(-c2cc(Cl)ccc2Cl)o1`
Result: n

Problem: Does `Cn1cccc1C(=O)C=Cc1ccc(-c2ccc(Cl)cc2[N+](=O)[O-])o1` have IC50 strictly under 40 µg/mL?
Result: y

* * *

What MIC was measured for each of the following?
Report only the number, with the unit µg/mL understood.

Problem: State the measured MIC (S. aureus (ATCC 25923)) of `Cn1cccc1C(=O)C=Cc1ccc(-c2ccc(Cl)cc2)o1`
Result: 400

Problem: Quote MIC with test system S. aureus (ATCC 25923) for `Cn1cccc1C(=O)C=Cc1ccc(-c2ccc(Cl)cc2Cl)o1`
Result: 400

Problem: State, for S. aureus (ATCC 25923), measured MIC of the compound listed here: O=C(N[C@H](CO)[C@H](O)c1ccc([N+](=O)[O-])cc1)C(Cl)Cl [Chloramphenicol, reference compound]
Result: 25

Problem: Provide measured MIC on S. aureus (ATCC 25923) for `Cn1cccc1C(=O)C=Cc1ccc(-c2cccc([N+](=O)[O-])c2)o1` please.
Result: 200

Problem: Provide MIC, system S. aureus (ATCC 25923), entry `Cn1cccc1C(=O)C=Cc1ccc(-c2ccc(Cl)c(Cl)c2)o1`
Result: 200

Problem: // fetch MIC for `Cn1cccc1C(=O)C=Cc1ccc(-c2ccccc2[N+](=O)[O-])o1` ; system: S. aureus (ATCC 25923)
Result: 100

Problem: Consider the compound `Cn1cccc1C(=O)C=Cc1ccc(-c2ccc([N+](=O)[O-])cc2)o1` tested on S. aureus (ATCC 25923); state its MIC.
Result: 200

Problem: Enter MIC (test system S. aureus (ATCC 25923)) for `Cn1cccc1C(=O)C=Cc1ccc(-c2cccc(Cl)c2)o1`
Result: 200

Problem: Identify measured MIC obtained with S. aureus (ATCC 25923) for `Cn1cccc1C(=O)C=Cc1ccc(-c2ccccc2Cl)o1` .
Result: 400

Problem: Identify measured MIC obtained with S. aureus (ATCC 25923) for `Cn1cccc1C(=O)C=Cc1ccc(-c2ccc(Cl)cc2[N+](=O)[O-])o1` .
Result: 100

Problem: // fetch MIC; item: `Cn1cccc1C(=O)C=Cc1ccc(-c2cc(Cl)ccc2Cl)o1` ; system: S. aureus (ATCC 25923)
Result: 200

* * *

Assign MIC to each entry below.
Tested on: C. albicans (ATCC 90028)
Provide only the numeric value, understood in µg/mL.

Problem: State its MIC for this molecule: `Cn1cccc1C(=O)C=Cc1ccc(-c2cccc(Cl)c2)o1`
Result: 200

Problem: For `Cn1cccc1C(=O)C=Cc1ccc(-c2ccc(Cl)cc2)o1` , write its MIC.
Result: 50

Problem: For the molecule `Cn1cccc1C(=O)C=Cc1ccc(-c2ccc(Cl)cc2[N+](=O)[O-])o1` , give its measured MIC value.
Result: 200

Problem: Please give measured MIC of the following entry: `Cn1cccc1C(=O)C=Cc1ccc(-c2cc(Cl)ccc2Cl)o1`
Result: 200

Problem: Give recorded MIC. `Cn1cccc1C(=O)C=Cc1ccc(-c2ccccc2Cl)o1`
Result: 200

Problem: Give reported MIC value for `Cn1cccc1C(=O)C=Cc1ccc(-c2ccc([N+](=O)[O-])cc2)o1`
Result: 100

Problem: Tell us which MIC value is on record for `Cn1cccc1C(=O)C=Cc1ccc(-c2ccc(Cl)c(Cl)c2)o1`
Result: 100

Problem: // Input: `Cn1cccc1C(=O)C=Cc1ccc(-c2ccccc2[N+](=O)[O-])o1` . Output its MIC only.
Result: 50

Problem: Provide MIC value for the following molecule: CC(=O)N1CCN(c2ccc(OCC3COC(Cn4ccnc4)(c4ccc(Cl)cc4Cl)O3)cc2)CC1 (centres unmarked) [Ketoconazole, reference compound]
Result: 50

Problem: Return MIC for the following molecule: `Cn1cccc1C(=O)C=Cc1ccc(-c2ccc(Cl)cc2Cl)o1`
Result: 200

Problem: Indicate its recorded MIC; the molecule in question is `Cn1cccc1C(=O)C=Cc1ccc(-c2cccc([N+](=O)[O-])c2)o1`
Result: 100

* * *

Tested on: C6 rat glioma cell line
experimental_protocol: MTT assay
Type: cell-based
condition_parameters: Rattus norvegicus, C6
Checkbox rule: IC50 lower than 100 µg/mL = 1; IC50 not lower than 100 µg/mL = -1.

Problem: Find out if reported IC50 for Cn1cccc1C(=O)C=Cc1ccc(-c2ccc(Cl)cc2)o1 [Compound 7] is less than 100 µg/mL
Result: -1

Problem: For this compound, is IC50 lower than 100 µg/mL? Cn1cccc1C(=O)C=Cc1ccc(-c2ccccc2Cl)o1 [Compound 5]
Result: -1

Problem: Does the reported IC50 of Cn1cccc1C(=O)C=Cc1ccc(-c2ccc([N+](=O)[O-])cc2)o1 [Compound 1] stay below 100 µg/mL?
Result: 1

Problem: Below 100 µg/mL on IC50? Entry Cn1cccc1C(=O)C=Cc1ccc(-c2ccc(Cl)cc2Cl)o1 [Compound 8]
Result: 1

Problem: # TODO verify IC50 < 100 µg/mL strictly for this compound: Cn1cccc1C(=O)C=Cc1ccc(-c2cc(Cl)ccc2Cl)o1 [Compound 9]
Result: -1

Problem: Please check: IC50 for Cn1cccc1C(=O)C=Cc1ccc(-c2ccccc2[N+](=O)[O-])o1 [Compound 3] , strictly under 100 µg/mL or not?
Result: -1

Problem: Please determine if Cn1cccc1C(=O)C=Cc1ccc(-c2cccc([N+](=O)[O-])c2)o1 [Compound 2] is below 100 µg/mL in terms of IC50.
Result: -1

Problem: Input Cn1cccc1C(=O)C=Cc1ccc(-c2ccc(Cl)cc2[N+](=O)[O-])o1 [Compound 4] ; condition: IC50 strictly below 100 µg/mL. Does it hold?
Result: -1

* * *

Please respond with reported melting point for every item in the list.

Problem: Supply recorded melting point for `Cn1cccc1C(=O)C=Cc1ccc(-c2ccc(Cl)cc2[N+](=O)[O-])o1` here.
Result: 133 to 134 °C

Problem: For `Cn1cccc1C(=O)C=Cc1ccc(-c2cccc(Cl)c2)o1` , write its melting point.
Result: 121 to 122 °C

Problem: Provide measured melting point value, entry: `Cn1cccc1C(=O)C=Cc1ccc(-c2ccc([N+](=O)[O-])cc2)o1`
Result: 179 to 181 °C

Problem: Using the record for `Cn1cccc1C(=O)C=Cc1ccc(-c2ccc(Cl)c(Cl)c2)o1` , state its measured melting point.
Result: 132 to 133 °C

Problem: Assign melting point to the following record: `Cn1cccc1C(=O)C=Cc1ccc(-c2ccccc2Cl)o1`
Result: 95 to 96 °C

Problem: Answer with the recorded melting point for the molecule listed here: `Cn1cccc1C(=O)C=Cc1ccc(-c2cccc([N+](=O)[O-])c2)o1`
Result: 123 to 124 °C

Problem: Identify melting point associated with the molecule `Cn1cccc1C(=O)C=Cc1ccc(-c2ccccc2[N+](=O)[O-])o1`
Result: 94 to 95 °C

Problem: Output measured melting point for this item: `Cn1cccc1C(=O)C=Cc1ccc(-c2ccc(Cl)cc2Cl)o1`
Result: 98 to 99 °C
